- assayed_system: MsbA (Escherichia coli, UniProt P60752)
- Sequence (P60752 2-582): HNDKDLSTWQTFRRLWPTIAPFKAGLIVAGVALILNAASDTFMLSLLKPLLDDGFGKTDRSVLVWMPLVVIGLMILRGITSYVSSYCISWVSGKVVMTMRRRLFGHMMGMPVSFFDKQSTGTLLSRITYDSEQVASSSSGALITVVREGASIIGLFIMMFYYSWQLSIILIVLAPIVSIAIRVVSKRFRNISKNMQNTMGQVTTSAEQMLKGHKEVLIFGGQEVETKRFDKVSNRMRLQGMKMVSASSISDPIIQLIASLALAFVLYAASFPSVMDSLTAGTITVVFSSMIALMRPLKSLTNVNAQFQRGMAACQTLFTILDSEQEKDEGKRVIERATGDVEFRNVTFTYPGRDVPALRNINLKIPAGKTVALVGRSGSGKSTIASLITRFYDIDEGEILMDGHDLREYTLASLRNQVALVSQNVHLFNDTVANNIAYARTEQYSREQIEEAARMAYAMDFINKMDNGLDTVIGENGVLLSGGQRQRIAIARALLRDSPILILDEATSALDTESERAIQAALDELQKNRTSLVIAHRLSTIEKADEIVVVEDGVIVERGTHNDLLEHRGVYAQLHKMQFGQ
pKd: −log10 of the molar value.
reported_property: pKd

1) Nc1ncnc2c1ncn2[C@@H]1O[C@H](COP(=O)(O)OP(=O)(O)NP(=O)(O)O)[C@@H](O)[C@H]1O 5.29
